All figures here come from ChEMBL document CHEMBL1131181.

System: Human immunodeficiency virus 2
Assay: In vitro antiviral activity against HIV-2 (ROD) in CEM (human leukemia) cells.
Assay type: functional, organism-based
Settings: Human immunodeficiency virus 2, CCRF-CEM
pEC50: −log10 of the molar value.
pEC50 by entry:

C=C(C)C(=O)NC(=O)N[C@H]1O[C@H](CO[Si](C)(C)C(C)(C)C)[C@@]2(OS(=O)(=O)C=C2N)[C@H]1O[Si](C)(C)C(C)(C)C : < 5.19
COC(=O)c1ccccc1NC(=O)N[C@@H]1O[C@H](CO[Si](C)(C)C(C)(C)C)[C@@]2(OS(=O)(=O)C=C2N)[C@H]1O[Si](C)(C)C(C)(C)C : < 5.70
CC(=O)NC(=O)N[C@@H]1O[C@H](CO[Si](C)(C)C(C)(C)C)[C@@]2(OS(=O)(=O)C=C2N)[C@H]1O[Si](C)(C)C(C)(C)C : < 5.00
CC(C)(C)[Si](C)(C)OC[C@H]1O[C@@H](NC(=O)NC(=O)c2ccccc2)[C@H](O[Si](C)(C)C(C)(C)C)[C@]12OS(=O)(=O)C=C2N : < 4.30

query: Identify the reported pEC50 for the following entry. CC(C)(C)[Si](C)(C)OC[C@H]1O[C@H](NC(N)=O)[C@H](O[Si](C)(C)C(C)(C)C)[C@]12OS(=O)(=O)C=C2N
result: < 4.30

query: Identify the reported pEC50 for the following entry. CSc1ccc(NC(=O)N[C@H]2O[C@H](CO[Si](C)(C)C(C)(C)C)[C@@]3(OS(=O)(=O)C=C3N)[C@H]2O[Si](C)(C)C(C)(C)C)cc1
result: < 5.70

query: Identify the reported pEC50 for the following entry. CC(C)(C)[Si](C)(C)OC[C@H]1O[C@@H](NC(=S)Nc2ccccc2)[C@H](O[Si](C)(C)C(C)(C)C)[C@]12OS(=O)(=O)C=C2N
result: < 5.70
